TESTED TARGET: Neuropeptides B/W receptor type 1 (Homo sapiens) (UniProt P48145)
ASSAY REMARKS: GPR7 antagonists, late-stage follow-up, cell-based, fluorescence, dose response, set 3 (AID 540365)
CONDITION SUMMARY: GPR7-expressing cells, fluorescence antagonist read-out; run 1
Calls of active or inactive are those of the source. How the calls were made is not given here.
Allowed answers: 1 for active, -1 for inactive

Observe how each entry below is paired with its result.
| COMPOUND | CLASS |
| --- | --- |
| COc1ccc(Oc2c(Cl)cnn(C(c3ccccc3)c3ccccc3)c2=O)cc1 | 1 |
| CCOC(=O)C(c1ccccc1)n1ncc(Cl)c(Oc2ccc(OC)cc2)c1=O (configuration not stated) | 1 |
| COc1ccc(Nc2c(Cl)cnn(Cc3cccc4ccccc34)c2=O)cc1 | -1 |

What was the test verdict on CCOC(=O)C(c1cccc2ccccc12)n1ncc(Cl)c(Oc2ccc(OC)cc2)c1=O (configuration not stated) ? 1

What was the test verdict on `COc1ccc(Oc2c(C#N)cnn(Cc3cccc4ccccc34)c2=O)cc1` ? 1
